# study.target: Lysosomal acid glucosylceramidase (Homo sapiens)
# protocol.description: Binding affinity to recombinant beta-glucocerebrosidase assessed as enzymatic activity at 150 uM after 40 mins by thermal stabilization assay relative to control
Tag: yes (1) if measured fold change (FC) is not below 6, no (0) if it is.

Solved cases below.
CCCCCCCCCn1cc(CN[C@H]2[C@H](O)[C@@H](O)[C@H](O)[C@@H](O)[C@@H]2O)nn1 ... yes (1)
CCCCCCCCCCn1cc(CN[C@H]2[C@H](O)[C@@H](O)[C@H](O)[C@@H](O)[C@@H]2O)nn1 ... yes (1)
CCCCCCCCCCCn1cc(CCN[C@H]2[C@H](O)[C@@H](O)[C@H](O)[C@@H](O)[C@@H]2O)nn1 ... no (0)

q: Could you please find out whether CCCCCCCCCCCCn1cc(CN[C@H]2[C@H](O)[C@@H](O)[C@H](O)[C@@H](O)[C@@H]2O)nn1 has fold change (FC) that meets 6 or exceeds it?
a: yes (1)

Cited source: ChEMBL document CHEMBL1155442
